- System: Escherichia coli
- testDescription: Antibacterial activity against Escherichia coli ATCC 25922 at 1000 ug/ml after 24 hrs by cup plate method
- Assay type: functional
- settings: ATCC 25922, 24 h, read-out: IZ
// not fulfilled strictly below 20 mm in zone of inhibition at 1000 µg/mL; fulfilled otherwise

Example entries and their recorded answers appear below.
c1ccc(-c2cc(-c3ccccc3)c3ccccc3n2)cc1
not fulfilled
Cc1ccc(-c2cc(-c3ccccc3)c3ccccc3n2)cc1
not fulfilled
Clc1ccc2nc(-c3ccccc3)cc(-c3ccccc3)c2c1
not fulfilled

Lookup: In plain terms: is recorded zone of inhibition at 1000 µg/mL at least 20 mm for `Cc1ccc2nc(-c3cccc(Br)c3)cc(-c3ccccc3)c2c1` ?
Found: fulfilled

Lookup: In plain terms: is recorded zone of inhibition at 1000 µg/mL at least 20 mm for `O=C(O)c1ccc(C(c2c(-c3ccccc3)[nH]c3ccccc23)c2c(-c3ccccc3)[nH]c3ccccc23)cc1` ?
Found: not fulfilled

---

- Test system: Escherichia coli
- testDescription: Antibacterial activity against Escherichia coli ATCC 25922 at 1000 ug/ml after 24 hrs by cup plate method
- Format: functional
- settings: ATCC 25922, 24 h, read-out: IZ
The following compounds are shown together with reported zone of inhibition at 1000 µg/mL values.
All answers are understood in mm, so give the number only.

Guide cases for zone of inhibition at 1000 µg/mL, answers given:
COc1cccc(-c2cc(-c3ccccc3)c3ccccc3n2)c1
23
CCCCc1cc(-c2ccccc2)c2ccccc2n1
19
COc1cc(C(c2c(-c3ccccc3)[nH]c3ccccc23)c2c(-c3ccccc3)[nH]c3ccccc23)cc(Br)c1O
24
Cn1c(C(c2c(-c3ccccc3)[nH]c3ccccc23)c2c(-c3ccccc3)[nH]c3ccccc23)cc2ccccc21
16
Brc1cccc(-c2cc(-c3ccccc3)c3ccccc3n2)c1
12
c1ccc(-c2[nH]c3ccccc3c2C(c2ccc3c(c2)-c2ccccc2C3)c2c(-c3ccccc3)[nH]c3ccccc23)cc1
18
CCCCCc1ccc(-c2cc(C)c3ccccc3n2)cc1
18
COc1cc(Br)c(C(c2c(-c3ccccc3)[nH]c3ccccc23)c2c(-c3ccccc3)[nH]c3ccccc23)cc1OC
14
c1ccc(-c2ccc(C(c3c(-c4ccccc4)[nH]c4ccccc34)c3c(-c4ccccc4)[nH]c4ccccc34)cc2)cc1
26
CCn1c2ccccc2c2cc(C(c3c(-c4ccccc4)[nH]c4ccccc34)c3c(-c4ccccc4)[nH]c4ccccc34)ccc21
23

Lookup: Which measured zone of inhibition at 1000 µg/mL value corresponds to `Cc1ccccc1-c1cc(-c2ccccc2)c2ccccc2n1` ?
Found: 18

Lookup: Which measured zone of inhibition at 1000 µg/mL value corresponds to `c1ccc(-c2[nH]c3ccccc3c2C(c2cccc3ccccc23)c2c(-c3ccccc3)[nH]c3ccccc23)cc1` ?
Found: 16

---

- Tested on: Candida albicans
- testDescription: Antifungal activity against Candida albicans ATCC 10231 at 1000 ug/ml after 24 hrs by cup plate method
- Assay type: functional
- settings: ATCC 10231, 24 h, read-out: IZ
The following molecules are shown together with reported zone of inhibition at 1000 µg/mL values.
All answers are understood in mm, so give the number only.

Clc1nc2ccccc2cc1C(c1c(-c2ccccc2)[nH]c2ccccc12)c1c(-c2ccccc2)[nH]c2ccccc12
18
Cn1c(C(c2c(-c3ccccc3)[nH]c3ccccc23)c2c(-c3ccccc3)[nH]c3ccccc23)cc2ccccc21
14
c1ccc(-c2[nH]c3ccccc3c2C(c2cccc3ccccc23)c2c(-c3ccccc3)[nH]c3ccccc23)cc1
10
c1ccc(-c2cc(-c3ccccn3)nc3ccccc23)cc1
18
COc1cc(Br)c(C(c2c(-c3ccccc3)[nH]c3ccccc23)c2c(-c3ccccc3)[nH]c3ccccc23)cc1OC
16

Lookup: Which measured zone of inhibition at 1000 µg/mL value corresponds to `c1ccc(-c2[nH]c3ccccc3c2C(c2ccc3c(c2)-c2ccccc2C3)c2c(-c3ccccc3)[nH]c3ccccc23)cc1` ?
Found: 18

Lookup: Which measured zone of inhibition at 1000 µg/mL value corresponds to `Cc1ccccc1-c1cc(-c2ccccc2)c2ccccc2n1` ?
Found: 15

Lookup: Which measured zone of inhibition at 1000 µg/mL value corresponds to `Cc1ccc2nc(-c3cccc(Br)c3)cc(-c3ccccc3)c2c1` ?
Found: 21

Lookup: Which measured zone of inhibition at 1000 µg/mL value corresponds to C[C@@H]1[C@H](O)[C@@H](C)/C=C/C=C/C=C/C=C/C=C/C=C/C=C/[C@H](O[C@@H]2O[C@H](C)[C@@H](O)[C@H](N)[C@@H]2O)C[C@@H]2O[C@](O)(C[C@@H](O)C[C@@H](O)[C@H](O)CC[C@@H](O)C[C@@H](O)CC(=O)O[C@H]1C)C[C@H](O)[C@H]2C(=O)O [AMPHOTERICIN B] ?
Found: 20

Lookup: Which measured zone of inhibition at 1000 µg/mL value corresponds to `Brc1cc2c(cc1C(c1c(-c3ccccc3)[nH]c3ccccc13)c1c(-c3ccccc3)[nH]c3ccccc13)OCO2` ?
Found: 24
